I'd appreciate it if you could supply protease stability score values for the items below.
- Assay comment: protease stability score; higher = more stable; yeast display proteolysis, trypsin and chymotrypsin;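 note: relative to predicted unfolded state with 0 unfolded-like and 1 meaning tenfold more protease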
Give bare numbers.

Examples from the recorded data:
| Item sequence | protease stability score |
| --- | --- |
| TEEEEESKKAVEDLLHTIKTGNEEHMDRLLDPNVRLHVGDKDFVGREAFRHFWHEEWERFKNIKVELEDVKIFNGRVQIVLRIDIGDKHHRLHVYADKINGRWFIKRVEIE | 2 |
| SEDEEKLQHMTHLFIHLEITGDEKLWTELADPNVRLDINGVEYHGREHVLRSWVELGIKVMRLHRRTAQGDKMHLDGTIDFNGRRYRIHVDVKIIDGKLKDTKQHIE | 2.17 |

Read the next record carefully.
Form field: reported protease stability score of SEKEKDSRIAIELSLKLVLTGNPEMNRELVDPHARVEVGEKEYHGRDWVRYQLELLGIDHFEIHHVDMYGEYVDVTLELRVGDKSFRLILHLEKIDGRWIVRKVHVD
2.14

----------
For each of the sequences below, state its protease stability score.
- Assay comment: protease stability score; higher = more stable; yeast display proteolysis, trypsin and chymotrypsin;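 note: relative to predicted unfolded state with 0 unfolded-like and 1 meaning tenfold more protease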
Numbers only.

| Item sequence | protease stability score |
| --- | --- |
| DEEERDSRIALEIWLHNVRTGDEKSERDNLDPHVRYIVDGRDYIGREDFLHMMSQIRIEEIRIKRFSSYNGRIHMDVHSRVTYNGVDRDIDENLHSTKYDGRWSIHYIEFR | 1.01 |
| RSEEHEAKDKVREWVEAYLTGDEDHLRRLHDPDMRFNWNGVEIHGMEEFSHWMHKYMYELGVDHTHVTVRHIEFYGDKIHADTKLFIRQGDKEREHHSQVHIEVINGQFKRLEIREH | 0.829 |
| DEDHEQAKRVFDELVDNTRTGDFDNLRKLMDPHARLVINGRNFIGREEVIRVMHEIRIETHRIRSIRIINGQARIDVESEVDINGRTEETRVEIIVFKVDGRWYLHTLRIV | 1.99 |
| SEEDELMEEWRRLFIHSFLTGNEDELHRLIDPNARFIINGVNLHGWKALETKLRELGAKHIEVRERHEHRQGNKLELHVHIIIHQGDKDLREDVRIENEKVNGRWVVRTIEEK | 1.07 |
| SEEERSAIEFITRWIQAFETGDEDTLHKLADPNMKIWINGRELIGMQRFIRELQEEMTKRGVRIHIRIEDMRVFNGRLHTDGQFKLEVNGVDVFTTTYLLINKINGKWILEHVNIN | 1.3 |
| DEEKDIIERMSKMITRSWETGNEDWLSELADPDVKFHINGRDHHGMEEMARLWLELVLKLGVKHQTIEHLSIQGDKVHIHSRSDFNGRHMKLEIRVLLVNGKIRSVTVHLHVD | 0.633 |

For each of the sequences below, state protease stability score.
1. SEEEEFSHNLLNFMLHVIHTGDFDLLLDLMDPDTRVDINGKRHHGRDAMRIWVTLLGIERVETDVHHISIYGDKARIDGRVHYNGKTQRFEIHSRKIDGKWLNTEIKWD
2. DEDEKHMEEWLRLLKHALVTGDFEMILRNLDPHYRNDINGREFHGWEFFDKLMKEIRVKDSHLTHIEIYDGKAISETNVDLHVDGKDVLLDTRVVIDKYNGRWIIRHVSID
3. SEEMHWAKEFYKALLKSWRTGDEELIKDLMDPHVRLHYGDKELHGREEFVRFIQEHVSRVDHIDIHIDDMKLQGNKVHVDGIIIIHVNGRDINIRSEYIIYKVDGRWHLETVHIH
4. DEEEEMIEKIFKHLVEALRTGDWRQLEKLFDPNVRIEIGDKHSVGREEAVKFLEEWRKRADHIEHIDFRNRRSVDGRIEIEGRHLGHIDGRLVNTRVEFEIVIVDGKIEYNRLHVL
5. DEEERDAIHAFRDFVKNFITGNEDRIDELADPHMRSDINGVSIHGWEEFSRHTLREMKRFDHIEFRIRDIKIQGNYIHIDTEVILRVNGRTFSTRMVLIWLKVNGKWFLHEIDVR

1: 1.09; 2: 1.23; 3: 1.59; 4: 1.58; 5: 1.35
